Kindly supply the reported growth values for the records listed here.
- Tested on: DU-145 prostate
- procedure_summary: NCI-60 one-dose screen, 48 h (100 = growth as untreated, 0 = no growth, -100 = all killed)
- run_conditions: 10 µM unless noted
This is part of a sample that, as a whole, favours compounds with a hit. Of some 83,000 tested, about 20% had one in any assay.
Numbers only, in %.

Completed entries (count: 5):
CCOC(=O)c1c(C)nc(C)c(C(=O)OCC)c1-c1cccnc1; 116
COc1ccc(C2CC(c3ccc(OC)c(OC)c3)=NN2C(=O)c2cc(OC)c(OC)c(OC)c2)cc1 (stereo not given); 11.6
Cc1nn(-c2ccccc2)c2nc3c(nc12)C(=O)CCC3; 104
COc1cc(C2NC(c3ccc(Cl)cc3)C(C)C(=NC(=O)c3cnccn3)C2C)cc(OC)c1OC (stereo not given); 115
COc1ccc2nc(NC(=O)c3cc(-c4ccc(F)cc4)n4nc(-c5ccccc5)cc4n3)sc2c1; 78.1

Below are 5 compounds. Give each one its growth.
1. COc1ccc(-c2cc(Cc3cccs3)c(=O)n(Cn3cncn3)n2)cc1
2. COc1ccc2[nH]cc(/C=C3/C(=O)Nc4ccc(Cl)cc43)c2c1
3. O=C1/C(=C/c2ccc([N+](=O)[O-])s2)Oc2ccc(Br)cc21
4. CCOC(=O)C1=C(COCCN)NC(C)=C(C(=O)OC)C1c1ccccc1Cl (stereo not given)
5. Oc1ccccc1C=Nc1ccccc1N=Cc1ccccc1O.[Cu+2]

Ans.
[124, 47.6, -72.1, 98.6, 68.5]

====

- Tested on: EKVX NSCLC
- procedure_summary: NCI-60 one-dose screen, 48 h (100 = growth as untreated, 0 = no growth, -100 = all killed)
- run_conditions: 10 µM unless noted
- Procedure: Growth inhibition of the EKVX human Non-Small Cell Lung tumor cell line is measured as a screen for anti-cancer activity. Cells are grown in 96 well plates and exposed to the test compound for 48 hours. Compounds are tested at a single concentration, which is 10^-5 M for most compounds. The reported endpoint is percent growth (GI% or GIPRCNT), where numbers from 0 - 100% represent growth inhibition, and numbers from -100% - 0 represent cell death. […]
About 83,000 compounds went through this panel and 20% of them were active in at least one assay; those are over-represented in the sample as a whole.
Kindly supply the reported growth values for the records listed here.
Numbers only, in %.

Completed entries (count: 3):
COC(=O)CCC1=C(C)C(C)=N/C1=C\c1[nH]c(-c2ccc[nH]2)cc1OC; 29.9
NC(=O)NN=C(C1CC1)C1CC1; 103
CCN(CC)CCOc1ccccc1-n1c(C)ccc1-c1ccccc1; 83.8

Below are 5 compounds. Give each one its growth.
1. Cn1c(=O)c2nc(SCc3ccccc3)n(C)c2n(C)c1=O
2. Cc1c(C(N)=O)sc2c1c(=O)n(Cc1ccccc1)c1nnc(S(=O)(=O)CC(=O)Nc3ccc(Cl)cc3)n21
3. Cn1cnc([N+](=O)[O-])c1S(=O)(=O)Oc1ccc(Cl)cc1
4. Cc1cc(CC(=O)O)n(C)c1C(=O)c1ccc(Cl)cc1
5. COc1ccc(C(=O)C(C)Br)cc1OC (stereo unspecified)

Ans.
1. 123
2. 43.6
3. 102
4. 102
5. 98.4

====

- System: KM12 colon
- procedure_summary: NCI-60 one-dose screen, 48 h (100 = growth as untreated, 0 = no growth, -100 = all killed)
- run_conditions: 10 µM unless noted
The panel holds about 83,000 compounds, 20% with a hit somewhere; the sample as a whole holds those more often.
Kindly supply the reported growth values for the records listed here.
One number for each entry, in %.

Completed entries (count: 3):
O=[N+]([O-])c1ccc(N/N=C\c2ccccc2[N+](=O)[O-])nc1; 104
O=C1c2ccccc2-c2c1nc1ccccc1[n+]2[O-]; 101
Nc1ccc2c(c1)/C(=N/O)c1cc([N+](=O)[O-])ccc1-2; 64.8

Below are 6 compounds. Give each one its growth.
1. CCS(=O)(=O)OCCCl
2. CC1=C(C(=O)Nc2ccccc2)C(c2ccc3c(c2)OCCO3)NC(=O)N1 (stereo not drawn)
3. NC(N)=NN=c1c(=O)c2ccccc2c1=O
4. C[C@@H]1CC[C@H]2[C@@H](C)C(O)O[C@@H]3O[C@]4(C)CC[C@@H]1[C@]32OO4 (stereo partly drawn)
5. Cc1nn(-c2ccccc2)c(Cl)c1C(CC(=O)c1ccc(Cl)cc1)CC(=O)c1ccc(Cl)cc1
6. CC(CCC(=O)O)(NC(=O)c1ccc([N+](=O)[O-])cc1)C(=O)O (stereo not drawn)

Ans.
[115, 100, 73.8, 18.3, 86.1, 99.3]
